TARGET DESC: mT2R5 (Mus musculus, UniProt Q9JKT4)
Construct: pEAK10 vector
Sequence (Q9JKT4 whole entry): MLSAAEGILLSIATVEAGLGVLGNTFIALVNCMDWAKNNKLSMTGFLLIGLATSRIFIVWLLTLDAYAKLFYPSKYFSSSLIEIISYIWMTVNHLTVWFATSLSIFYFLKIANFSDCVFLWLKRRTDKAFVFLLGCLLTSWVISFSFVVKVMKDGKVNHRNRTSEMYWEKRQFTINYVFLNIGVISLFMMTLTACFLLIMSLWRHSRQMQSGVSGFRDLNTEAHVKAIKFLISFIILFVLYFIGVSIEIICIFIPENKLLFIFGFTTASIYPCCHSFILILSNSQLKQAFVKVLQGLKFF
MEASUREMENT NOTES: FURA-2 [Ca2+]i imaging in HEK-293 cells expressing Gα15 and rho-mT2R5 (taster, DBA/2 allele)
QUANTITY NAME: EC50 (µM)
All answers are understood in µM, so give the number only.

Tell me the measured EC50 of C[C@@H]1C[C@@H]([C@H](O)CC2CC(=O)NC(=O)C2)C(=O)[C@@H](C)C1 [cycloheximide] , please. 0.5
